These data points were gathered from patent US8377967B2.

SUBJECT_OF_TEST: cerebral H1 receptor (Mus musculus, UniProt P70174)
Construct: the entire brain, except for cerebellum and medulla oblongatae, was rapidly excised; from tissue; host or cells: brain homogenate (without cerebellum and medulla oblongata) of orally dosed ICR male mice
Sequence (P70174 whole entry): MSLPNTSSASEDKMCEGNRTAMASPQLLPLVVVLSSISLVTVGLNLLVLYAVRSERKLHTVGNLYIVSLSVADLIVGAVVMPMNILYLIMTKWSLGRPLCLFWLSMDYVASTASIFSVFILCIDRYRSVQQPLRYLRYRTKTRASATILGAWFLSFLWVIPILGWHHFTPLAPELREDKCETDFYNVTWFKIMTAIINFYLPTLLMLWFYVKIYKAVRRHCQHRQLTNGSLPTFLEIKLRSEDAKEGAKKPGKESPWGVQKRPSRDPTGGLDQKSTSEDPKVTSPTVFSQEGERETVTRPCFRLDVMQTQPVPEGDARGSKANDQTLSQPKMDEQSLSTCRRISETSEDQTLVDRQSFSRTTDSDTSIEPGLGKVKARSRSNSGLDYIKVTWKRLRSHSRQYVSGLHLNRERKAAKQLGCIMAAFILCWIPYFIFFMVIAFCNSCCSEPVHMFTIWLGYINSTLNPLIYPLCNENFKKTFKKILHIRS
MEASUREMENT_NOTES: Murine cerebral H1 receptor occupying content (ex vivo)
Format: in vivo
CONDITION_CONTEXT: ICR male mouse, oral administration, brain excised after 1 hour, 3H-pyrilamine binding in brain homogenate; larger = lower brain transfer; read-out: ID50 (the source's name)
PARAMETER_MEASURED: ED50 (mg/kg)
Write the answer as a number in mg/kg, unit excluded.

SMILES_REPR: CN1CCC(=C2c3ccccc3CCc3sc(C(=O)NCCO)cc32)CC1
UNIT_LABEL: mg/kg
ED50: 55.1
--
SMILES_REPR: CCOC(=O)CCN1CCC(=C2c3cc(CC(=O)OC)ccc3OCc3ccsc32)CC1.Cl
UNIT_LABEL: mg/kg
ED50: 87.1
--
SMILES_REPR: CSCCCN1CCC(=C2c3cc(CC(=O)O)ccc3OCc3ccsc32)CC1
UNIT_LABEL: mg/kg
ED50: 4.5
--
SMILES_REPR: CN1CCC(=C2c3cc(CCCC(=O)O)ccc3OCc3ccsc32)CC1
UNIT_LABEL: mg/kg
ED50: 3.2
--
SMILES_REPR: CCN1CCC(=C2c3cc(CC(=O)OC)ccc3OCc3ccsc32)CC1.Cl
UNIT_LABEL: mg/kg
ED50: 9.84

Now look at this one.
Query block: Print cerebral H1 receptor (Mus musculus, UniProt P70174) ED50 for "CCCN1CCC(=C2c3cc(CC(=O)OC)ccc3OCc3ccsc32)CC1.Cl" .
Result block: 40.5
